Reference source for all entries: the supplement of paper PMC11061612

- Tested on: ME-1 (Acute Myeloid Leukemia)
- Assay remarks: combination Emax (second highest fraction inhibited in the dose matrix, 72 h); higher = more inhibition; extreme values may be limits of the assay
Observable: combination Emax
Answer with a number only.

COc1cccc(OCCCN)c1-c1cc(Nc2cnc(C#N)cn2)n[nH]1 [Prexasertib] + C[C@@H]1COCCN1C2=NC(=NC(=C2)C3(CC3)[S@](=N)(=O)C)C4=C5C=CNC5=NC=C4 [AZD6738] (first compound max 1 µM, 7x7, partner max 10 µM) ... 0.633

Field: next molecule
Exercise: Consider the molecule shown here: CS(=O)(=O)CCNCc1ccc(-c2ccc3ncnc(Nc4ccc(OCc5cccc(F)c5)c(Cl)c4)c3c2)o1 [Lapatinib] + NC1(c2ccc(-c3nc4ccn5c(=O)[nH]nc5c4cc3-c3ccccc3)cc2)CCC1 [MK-2206] (first compound max 10 µM, 7x7, partner max 10 µM) What is its recorded combination Emax?
Key: 0.301
